# Test system: OVCAR-4 ovarian
# Procedure text: NCI tumour cell line growth inhibition, 48 h
Entries and their TGI
Metric name: TGI

In [3]: df
Out[3]:
                                    compound   measured
 0  O=S1(=O)C[C@@H](NCc2ccccc2)[C@H](NCc2ccccc2)C1   > 100 µM
 1  c1ccc(-c2nc(N3CCCNCC3)c3nc(-c4ccccc4)oc3n2)cc1    3.67 µM
 2  COc1ccc(N2C(=O)C3c4[nH]c5ccccc5c4C4CCCCCCCCCC4C3C2=O)cc1 (centres undefined)    > 10 µM
 3  COc1ccc(F)c(F)c1C(=O)c1cnc(NC2CCN(S(C)(=O)=O)CC2)nc1N  > 27.9 µM
 4  CC(C)[O-].CC(C)[O-].CN(CCN(C)Cc1cc(F)cc(F)c1[O-])Cc1cc(F)cc(F)c1[O-].[Ti+4]    7.18 µM
 5  O=C1/C(=C/c2cccc([N+](=O)[O-])c2)Sc2scc(-c3ccc([N+](=O)[O-])cc3)[n+]21   > 100 µM
 6  COc1ccc(Nc2nccc(N3CCN(c4c5ccc(Cl)cc5nc5ccc(OC)cc45)CC3)n2)cc1   > 100 µM
 7  CC1(C)OC2COC3([C@@H]4OC(C)(C)O[C@@H]4CO)OC(C)(C)OC3C2O1 (some centres undefined)   > 100 µM
 8  CCOC(=O)c1c(SCCN2CCOCC2)n(-c2ccccc2)c(=S)n(-c2ccccc2)c1=O   > 100 µM
 9         CCCCCCCCCCCCCC[n+]1cccc(C(N)=O)c1    19.6 µM
10  COP(=O)(OC)C(Nc1ccc(Cc2ccc(NC(c3ccco3)P(=O)(OC)OC)cc2)cc1)c1ccco1 (centres undefined)   > 100 µM
11  CSc1nc2c(ncn2C2OC(CO)C(O)C(O)C2O)c(=O)[nH]1 (centres undefined)   > 100 µM
12  CCOC(=O)N1CCN(CCCCCOc2ccccc2C2CCCCC2)CC1    22.2 µM
13  CN1c2ccccc2SC2C(c3ccccc3)=NOC21 (centres undefined)   > 100 µM

Data provenance: PubChem BioAssay (NCI)
